- assay explanation: Plasma AUC after single administration to a normal human subject
- Format: in vivo
- condition label: 200 mg singly administered, read-out: plasma AUC0-∞
measure name: AUC(0-inf)

Q) Form field: reported AUC(0-inf) of CC[C@H]1OC(=O)[C@H](C)[C@@H](O[C@H]2C[C@@](C)(OC)[C@@H](O)[C@H](C)O2)[C@H](C)[C@@H](O[C@@H]2O[C@H](C)C[C@H](N(C)C)[C@H]2O)[C@](C)(OC)C[C@@H](C)C(=O)[C@H](C)[C@@H](O)[C@]1(C)O
A) 8980 ng·h/mL
